Measured OKT4a anti-hu A647 Secondary signal of individual entries
target: T1, human CD4 on the surface of SKW3 cells or human PBMCs (human, UniProt P01730 26-458); assay: FACS binning on SKW3 cells; competitor OKT4a, anti-human A647 secondary (its signal read); background 5000, max binding 35000
T1 construct: whole, on cells; SKW3 CD4 knockout cells served as the negative cell line; also called hCD4; SKW3 WT

{"binder": "75110_01A06A (antibody, V domains shown, Tested here as non-clonal hybridoma supernatant from AlivaMab Mouse Kappa mice (detected with anti-mouse Fc and anti-human kappa)) VH: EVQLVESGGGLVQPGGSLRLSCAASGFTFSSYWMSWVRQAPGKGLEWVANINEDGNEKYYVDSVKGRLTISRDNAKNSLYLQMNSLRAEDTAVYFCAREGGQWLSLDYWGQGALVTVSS VL: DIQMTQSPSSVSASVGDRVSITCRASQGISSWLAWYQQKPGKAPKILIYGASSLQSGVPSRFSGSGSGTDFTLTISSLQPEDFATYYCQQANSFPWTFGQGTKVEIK", "OKT4a anti-hu A647 Secondary signal": 43700}
{"binder": "75110_04P08A (antibody, V domains shown, Tested here as non-clonal hybridoma supernatant from AlivaMab Mouse Kappa mice (detected with anti-mouse Fc and anti-human kappa)) VH: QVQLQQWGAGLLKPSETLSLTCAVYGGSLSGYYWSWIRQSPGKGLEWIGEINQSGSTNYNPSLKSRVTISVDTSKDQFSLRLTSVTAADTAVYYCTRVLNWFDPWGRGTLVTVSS VL: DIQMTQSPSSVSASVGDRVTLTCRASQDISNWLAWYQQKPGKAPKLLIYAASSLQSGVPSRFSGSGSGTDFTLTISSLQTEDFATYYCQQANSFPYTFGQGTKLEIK", "OKT4a anti-hu A647 Secondary signal": 6060}
{"binder": "75110_03L12A (antibody, V domains shown, Tested here as non-clonal hybridoma supernatant from AlivaMab Mouse Kappa mice (detected with anti-mouse Fc and anti-human kappa)) VH: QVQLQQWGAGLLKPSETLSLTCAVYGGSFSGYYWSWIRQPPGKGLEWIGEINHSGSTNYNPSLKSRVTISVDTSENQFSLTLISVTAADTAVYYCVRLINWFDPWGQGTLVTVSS VL: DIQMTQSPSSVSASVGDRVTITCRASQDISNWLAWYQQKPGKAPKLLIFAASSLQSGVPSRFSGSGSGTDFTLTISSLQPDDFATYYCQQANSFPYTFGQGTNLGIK", "OKT4a anti-hu A647 Secondary signal": 5720}

# credit: patent US20220112288A1
